Each recorded value in this set is attributed to ChEMBL document CHEMBL4138123.

- Test system: SK-MEL-2
- Assay info: Cytotoxicity against human SK-MEL-2 cells assessed as cell growth at 10 uM after 48 hrs by sulforhodamine B assay relative to control
- Type: functional
- Condition description: SK-MEL-2, 48 h, read-out: Activity

{"Smiles input": "COc1ccc(C(=O)/C=C/c2cc(-c3cc(OC)c(OC)c(OC)c3)n[nH]2)cc1OC", "Units": "%", "growth at 10 µM": -81}
{"Smiles input": "COc1cc(-c2cc(/C=C/C(=O)c3ccc(N)cc3)[nH]n2)cc(OC)c1OC", "Units": "%", "growth at 10 µM": -15}
{"Smiles input": "COc1ccc(-c2cc(/C=C/C(=O)c3ccc(N)cc3)[nH]n2)cc1OC", "Units": "%", "growth at 10 µM": 46}
{"Smiles input": "COc1cc(-c2cc(/C=C/C(=O)c3ccc4c(c3)OCO4)[nH]n2)cc(OC)c1OC", "Units": "%", "growth at 10 µM": 51}
{"Smiles input": "COc1ccc(C(=O)/C=C/c2cc(-c3ccc(OC)c(OC)c3)n[nH]2)cc1OC", "Units": "%", "growth at 10 µM": -44}
{"Smiles input": "COc1cc(C(=O)/C=C/c2cc(-c3cc(OC)c(OC)c(OC)c3)n[nH]2)cc(OC)c1OC", "Units": "%", "growth at 10 µM": -63}
{"Smiles input": "COc1cc(-c2cc(/C=C/C(=O)c3ccc(Cl)c(Cl)c3)[nH]n2)cc(OC)c1OC", "Units": "%", "growth at 10 µM": 68}

====

- System: SF-539
- Assay info: Cytotoxicity against human SF539 cells assessed as cell growth at 0.01 uM after 48 hrs by sulforhodamine B assay relative to control
- Assay type: functional
- Condition description: SF-539, 48 h, read-out: Activity
Listing: growth at 0.01 µM of selected compounds

{"Smiles input": "COc1ccc(-c2cc(/C=C/C(=O)c3ccc(OC)c(OC)c3)[nH]n2)cc1", "growth at 0.01 µM": "95%"}
{"Smiles input": "COc1ccc(C(=O)/C=C/c2cc(-c3cc(OC)c(OC)c(OC)c3)n[nH]2)cc1OC", "growth at 0.01 µM": "97%"}
{"Smiles input": "COc1cc(-c2cc(/C=C/C(=O)c3ccc(N)cc3)[nH]n2)cc(OC)c1OC", "growth at 0.01 µM": "92%"}
{"Smiles input": "COc1cc(C(=O)/C=C/c2cc(-c3cc(OC)c(OC)c(OC)c3)n[nH]2)cc(OC)c1OC", "growth at 0.01 µM": "92%"}

====

- Tested on: HOP-62
- Assay info: Cytotoxicity against human HOP62 cells assessed as growth inhibition after 48 hrs by sulforhodamine B assay
- Assay type: functional
- Condition description: HOP-62, 48 h
Measured endpoint: TGI (µM)

{"Smiles input": "COc1ccc(-c2cc(/C=C/C(=O)c3cc(OC)c(OC)c(OC)c3)[nH]n2)cc1OC", "Target or test system": "HOP-62", "Units": "µM", "Value operator": "=", "Readout number": 3.58}
{"Smiles input": "COc1cc(-c2cc(/C=C/C(=O)c3ccc(F)c(F)c3)[nH]n2)cc(OC)c1OC", "Target or test system": "HOP-62", "Units": "µM", "Value operator": ">", "Readout number": 100}
{"Smiles input": "COc1cc2c(cc1OC)C(=O)/C(=C/c1cc(-c3ccc4c(c3)OCO4)n[nH]1)C2", "Target or test system": "HOP-62", "Units": "µM", "Value operator": "=", "Readout number": 2.96}
{"Smiles input": "COc1ccc(C(=O)/C=C/c2cc(-c3ccc(OC)c(OC)c3)n[nH]2)cc1OC", "Target or test system": "HOP-62", "Units": "µM", "Value operator": "=", "Readout number": 5.6}
{"Smiles input": "COc1ccc(-c2cc(/C=C/C(=O)c3ccc(N)cc3)[nH]n2)cc1OC", "Target or test system": "HOP-62", "Units": "µM", "Value operator": "=", "Readout number": 9.67}
{"Smiles input": "COc1ccc(C(=O)/C=C/c2cc(-c3cc(OC)c(OC)c(OC)c3)n[nH]2)cc1OC", "Target or test system": "HOP-62", "Units": "µM", "Value operator": "=", "Readout number": 2.77}
{"Smiles input": "COc1cc(-c2cc(/C=C/C(=O)c3ccc(Cl)c(Cl)c3)[nH]n2)cc(OC)c1OC", "Target or test system": "HOP-62", "Units": "µM", "Value operator": "=", "Readout number": 7.66}
{"Smiles input": "COc1cc(-c2cc(/C=C/C(=O)c3ccc4c(c3)OCO4)[nH]n2)cc(OC)c1OC", "Target or test system": "HOP-62", "Units": "µM", "Value operator": "=", "Readout number": 5.17}

====

- Test system: M14
- Assay info: Cytotoxicity against human M14 cells assessed as cell growth at 10 uM after 48 hrs by sulforhodamine B assay relative to control
- Type: functional
- Condition description: M14, 48 h, read-out: Activity
Quick rule: growth at 10 µM of at least -40% means 1.0, below that means 0.0.

{"Smiles input": "COc1cc(-c2cc(/C=C/C(=O)c3ccc(Cl)c(Cl)c3)[nH]n2)cc(OC)c1OC", "Assigned label": 1.0}
{"Smiles input": "COc1ccc(C(=O)/C=C/c2cc(-c3ccc4c(c3)OCO4)n[nH]2)cc1OC", "Assigned label": 1.0}
{"Smiles input": "COc1cc(-c2cc(/C=C/C(=O)c3ccc(F)c(F)c3)[nH]n2)cc(OC)c1OC", "Assigned label": 1.0}
{"Smiles input": "COc1cc(-c2cc(/C=C/C(=O)c3ccc(N)cc3)[nH]n2)cc(OC)c1OC", "Assigned label": 0.0}
{"Smiles input": "COc1ccc(-c2cc(/C=C/C(=O)c3ccc(N)cc3)[nH]n2)cc1OC", "Assigned label": 0.0}

====

- Test system: OVCAR-8
- Assay info: Cytotoxicity against human OVCAR8 cells assessed as cell growth at 0.01 uM after 48 hrs by sulforhodamine B assay relative to control
- Type: functional
- Condition description: OVCAR-8, 48 h, read-out: Activity
Form field: growth at 0.01 µM (one value per entry).

{"Smiles input": "COc1ccc(-c2cc(/C=C/C(=O)c3ccc(OC)c(OC)c3)[nH]n2)cc1", "growth at 0.01 µM": "93%"}
{"Smiles input": "COc1ccc(-c2cc(/C=C/C(=O)c3ccc(N)cc3)[nH]n2)cc1", "growth at 0.01 µM": "96%"}
{"Smiles input": "COc1cc(-c2cc(/C=C/C(=O)c3ccc(N)cc3)[nH]n2)cc(OC)c1OC", "growth at 0.01 µM": "100%"}
{"Smiles input": "COc1cc(-c2cc(/C=C/C(=O)c3ccc(Cl)c(Cl)c3)[nH]n2)cc(OC)c1OC", "growth at 0.01 µM": "94%"}
{"Smiles input": "COc1ccc(C(=O)/C=C/c2cc(-c3ccc(OC)c(OC)c3)n[nH]2)cc1OC", "growth at 0.01 µM": "99%"}
{"Smiles input": "COc1ccc(C(=O)/C=C/c2cc(-c3cc(OC)c(OC)c(OC)c3)n[nH]2)cc1", "growth at 0.01 µM": "95%"}
{"Smiles input": "COc1ccc(C(=O)/C=C/c2cc(-c3cc(OC)c(OC)c(OC)c3)n[nH]2)cc1OC", "growth at 0.01 µM": "97%"}

====

Reported growth at 0.01 µM is given for each of the following compounds.
- System: OVCAR-4
- Assay info: Cytotoxicity against human OVCAR4 cells assessed as cell growth at 0.01 uM after 48 hrs by sulforhodamine B assay relative to control
- Type: functional
- Condition description: OVCAR-4, 48 h, read-out: Activity
Measured endpoint: growth at 0.01 µM

{"Smiles input": "COc1ccc(-c2cc(/C=C/C(=O)c3ccc(N)cc3)[nH]n2)cc1", "Target or test system": "OVCAR-4", "Measured endpoint": "growth at 0.01 µM", "Result": "88%"}
{"Smiles input": "COc1ccc(-c2cc(/C=C/C(=O)c3ccc(N)cc3)[nH]n2)cc1OC", "Target or test system": "OVCAR-4", "Measured endpoint": "growth at 0.01 µM", "Result": "85%"}
{"Smiles input": "COc1cc(-c2cc(/C=C/C(=O)c3ccc(Cl)c(Cl)c3)[nH]n2)cc(OC)c1OC", "Target or test system": "OVCAR-4", "Measured endpoint": "growth at 0.01 µM", "Result": "92%"}
{"Smiles input": "COc1ccc(C(=O)/C=C/c2cc(-c3ccc(OC)c(OC)c3)n[nH]2)cc1OC", "Target or test system": "OVCAR-4", "Measured endpoint": "growth at 0.01 µM", "Result": "106%"}
{"Smiles input": "COc1ccc(-c2cc(/C=C/C(=O)c3cc(OC)c(OC)c(OC)c3)[nH]n2)cc1OC", "Target or test system": "OVCAR-4", "Measured endpoint": "growth at 0.01 µM", "Result": "94%"}
{"Smiles input": "COc1cc2c(cc1OC)C(=O)/C(=C/c1cc(-c3ccc4c(c3)OCO4)n[nH]1)C2", "Target or test system": "OVCAR-4", "Measured endpoint": "growth at 0.01 µM", "Result": "101%"}
{"Smiles input": "COc1cc(C(=O)/C=C/c2cc(-c3ccc4c(c3)OCO4)n[nH]2)cc(OC)c1OC", "Target or test system": "OVCAR-4", "Measured endpoint": "growth at 0.01 µM", "Result": "97%"}
